Experiment notes: DDAVP permeation across Calu-3 cells on Transwell filters
Assay type: in vitro ADME, human
Assay conditions: human
Measurement label: Papp A→B (×10⁻⁶ cm/s)

- Smiles notation: "NC(=O)CC[C@@H]1NC(=O)[C@H](Cc2ccccc2)NC(=O)[C@H](Cc2ccc(O)cc2)NC(=O)CCSSC[C@@H](C(=O)N2CCC[C@H]2C(=O)N[C@H](CCCN=C(N)N)C(=O)NCC(N)=O)NC(=O)[C@H](CC(N)=O)NC1=O"
  Recorded value: 0.04
